- TESTED_ON: T1, IL-10R1-Fc (UniProt Q13651 22-235, limits assumed)
- T1 sequence (looked up): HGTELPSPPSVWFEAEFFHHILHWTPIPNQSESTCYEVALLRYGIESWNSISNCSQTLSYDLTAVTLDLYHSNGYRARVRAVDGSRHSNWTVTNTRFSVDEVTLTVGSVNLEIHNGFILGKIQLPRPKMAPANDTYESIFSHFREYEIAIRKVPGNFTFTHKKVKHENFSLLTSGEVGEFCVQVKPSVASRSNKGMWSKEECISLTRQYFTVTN
- ASSAY_SUMMARY: ELISA, IL-10R1-Fc coated
Decision: Binding recovery (>60%) >= 90% yields y, all other cases yield n.

// below: answered binders
INSERT INTO assay_data (binder, classification) VALUES
  ('IL-10 Arg27Cys-R4-20 (ligand, human, UniProt P22301 19-178, looked up, R4-20 on Cys 27, mature) SPGQGTQSENSCTHFPGNLPNMLRDLCDAFSRVKTFFQMKDQLDNLLLKESLLEDFKGYLGCQALSEMIQFYLEEVMPQAENQDPDIKAHVNSLGENLKTLRLRLRRCHRFLPCENKSKAVEQVKNAFNKLQEKGIYKAMSEFDIFINYIEAYMTMKIRN', 'n'),
  ('IL-10 Glu151Cys-R4-12 (ligand, human, UniProt P22301 19-178, looked up, R4-12 on Cys 151, mature) SPGQGTQSENSCTHFPGNLPNMLRDLRDAFSRVKTFFQMKDQLDNLLLKESLLEDFKGYLGCQALSEMIQFYLEEVMPQAENQDPDIKAHVNSLGENLKTLRLRLRRCHRFLPCENKSKAVEQVKNAFNKLQEKGIYKAMSEFDIFINYICAYMTMKIRN', 'n');

We now examine a further binder.
Input: Textbook exercise: given the entry IL-10 Thr13Cys-R4-6 (ligand, human, UniProt P22301 19-178, looked up, R4-6 on Cys 13, mature) SPGQGTQSENSCCHFPGNLPNMLRDLRDAFSRVKTFFQMKDQLDNLLLKESLLEDFKGYLGCQALSEMIQFYLEEVMPQAENQDPDIKAHVNSLGENLKTLRLRLRRCHRFLPCENKSKAVEQVKNAFNKLQEKGIYKAMSEFDIFINYIEAYMTMKIRN , state whether its Binding recovery (>60%) is greater than or equal to 90%.
Output: y
